Tested on: MCF7
assay-explanation: Breast Cancer Cell Proliferation Assay (MCF-7), Cell Titer-Glo
Assay type: cell-based
test-settings: Homo sapiens, MCF7, 120 h, MCF7 cells, 5 days of compound exposure
Listing: IC50 of selected molecules

Examples with their reported IC50 follow.
[
  {
    "molecule": "CCCN1CC[C@H](Nc2ccc([C@@H]3c4[nH]c5ccccc5c4C[C@@H](C)N3C34CC(C3)C4)cc2)C1 [Compound 72]",
    "IC50": "≤ 25 nM"
  },
  {
    "molecule": "C[C@@H]1Cc2c([nH]c3ccccc23)[C@@H](c2ccc(N[C@H]3CCN(CCCF)C3)cc2)N1C12CC(C1)C2 [Compound 42]",
    "IC50": "≤ 25 nM"
  },
  {
    "molecule": "C[C@H]1Cc2c([nH]c3ccccc23)[C@H](c2c(F)cc(O[C@H]3CCN(CCCF)C3)cc2F)N1C12CC(C#N)(C1)C2 (single isomer, unassigned) [Compound 90]",
    "IC50": "≥ 250 nM"
  },
  {
    "molecule": "C[C@@H]1Cc2c([nH]c3ccccc23)[C@@H](c2c(F)cc(NC3CN(CCCF)C3)cc2F)N1C12CC(CO)(C1)C2 (single isomer, unassigned) [Compound 18]",
    "IC50": "≤ 25 nM"
  },
  {
    "molecule": "C[C@@H]1Cc2c([nH]c3ccccc23)[C@@H](c2ncc(OC3CN(CCCF)C3)cn2)N1C12CC(C1)C2 [Compound 61]",
    "IC50": "≥ 250 nM"
  }
]

Now take the following molecule into account.
Record CCCN1C[C@H](F)[C@H](Nc2ccc([C@@H]3c4[nH]c5ccccc5c4C[C@@H](C)N3C34CC(C3)C4)cc2)C1 (single isomer, unassigned) [Compound 85] , field IC50: ≤ 25 nM

* * *

assay-explanation: Plasma and tumor PK analysis post final dosing in MCF-7 orthotopic model
Assay type: in vivo, mouse
test-settings: mouse; MCF-7 orthotopic model mice, tumor AUC vs plasma AUC; read-out: Tumor/Plasma ratio
Method: Plasma samples were collected with seven time points (0.25 h, 0.5 h, 1 h, 2 h, 4 h, 8 h, and 24 h) post final dosing for PK analysis. Tumor samples were collected with three time points (2 h, 8 h and 24 h) post final dosing for PK analysis.
parameter-measured: Kp

[
  {
    "compound": "C[C@@H]1Cc2c([nH]c3ccccc23)[C@@H](c2ccc(N[C@H]3CCN(CCCF)C3)cc2)N1C12CC(C1)C2",
    "Kp": 55.9
  }
]

(A) C[C@@H]1Cc2c([nH]c3ccccc23)[C@@H](c2c(F)cc(NC3CN(CCCF)C3)cc2F)N1CC(F)(F)CO [GDC9545, reference compound]
(B) CCCN1CC(Nc2ccc([C@@H]3c4[nH]c5ccccc5c4C[C@@H](C)N3C34CC(C3)C4)cc2)C1
Kindly identify the item with the lower Kp figure among these two: A and B Record your answer as the label of the chosen record.
A

* * *

Tested on: MCF7
assay-explanation: Breast Cancer Cell Proliferation Assay (MCF-7), Cell Titer-Glo
Assay type: cell-based
test-settings: Homo sapiens, MCF7, 120 h, MCF7 cells, 5 days of compound exposure
pIC50: −log10 of the molar value.
parameter-measured: pIC50

Answered cases to consult:
[
  {
    "molecule": "C[C@@H]1Cc2c([nH]c3ccccc23)[C@@H](c2ccc(O[C@@H]3CCN(CCCF)C3)nc2)N1C12CC(C1)C2 (single isomer, unassigned) [Compound 9]",
    "test-result": "6.60 to 7.60"
  },
  {
    "molecule": "CCCN1CC(Nc2ccc([C@@H]3c4[nH]c5ccccc5c4C[C@@H](C)N3C34CC(C3)C4)cc2)C1 [Compound 31]",
    "test-result": "≥ 7.60"
  },
  {
    "molecule": "C[C@@H]1Cc2c([nH]c3ccccc23)[C@@H](c2cnc(NC3CN(CCCF)C3)c(F)c2)N1C12CC(C1)C2 [Compound 41]",
    "test-result": "≤ 6.60"
  },
  {
    "molecule": "C[C@H]1Cc2c([nH]c3ccccc23)[C@H](c2c(F)cc(N[C@H]3CCN(CCCF)C3)cc2F)N1C12CC(CO)(C1)C2 (single isomer, unassigned) [Compound 71]",
    "test-result": "≥ 7.60"
  },
  {
    "molecule": "C[C@@H]1Cc2c([nH]c3ccccc23)[C@@H](c2ccc(OCCN3CC(CF)C3)cc2F)N1C12CC(C1)C2 [Compound 25]",
    "test-result": "≥ 7.60"
  },
  {
    "molecule": "CCCN1CC[C@H](Nc2cnc([C@@H]3c4[nH]c5ccccc5c4C[C@@H](C)N3C34CC(C3)C4)cn2)C1 [Compound 54]",
    "test-result": "≥ 7.60"
  },
  {
    "molecule": "CCCN1CC(Oc2ccc([C@@H]3c4[nH]c5ccccc5c4C[C@@H](C)N3C34CC(C3)C4)cc2)C1 [Compound 39]",
    "test-result": "≥ 7.60"
  },
  {
    "molecule": "C[C@@H]1Cc2c([nH]c3ccccc23)[C@@H](c2ncc(NC3CN(CCCF)C3)cn2)N1C12CC(C1)C2 [Compound 60]",
    "test-result": "≤ 6.60"
  }
]

The measured pIC50 associated with C[C@@H]1Cc2c([nH]c3ccccc23)[C@@H](c2c(F)cc(O[C@H]3CCN(CCCF)C3)cc2F)N1C12CC(C1)C2 (single isomer, unassigned) [Compound 6] reads ≥ 7.60

pIC50 recorded for this molecule, CCCN1C[C@@H](Nc2ccc([C@@H]3c4[nH]c5ccccc5c4C[C@@H](C)N3C34CC(C3)C4)cc2)C[C@@H]1C [Compound 89] , is 6.60 to 7.60

Note to self: pIC50 recorded for C[C@@H]1Cc2c([nH]c3ccccc23)[C@@H](c2ccc(NC3CN(CCCF)C3)nc2)N1C12CC(C1)C2 [Compound 21] was < 6.60

GET /value?item= COc1cc(NC2CN(CCCF)C2)cnc1[C@@H]1c2[nH]c3ccccc3c2C[C@@H](C)N1C12CC(C1)C2 [Compound 94] &field=pIC50 returns ≤ 6.60

// C[C@@H]1Cc2c([nH]c3ccccc23)[C@@H](c2cnc(N[C@H]3CCN(CCCF)C3)cn2)N1C12CC(C1)C2 [Compound 44] : pIC50 value = ≤ 6.60
